Test: gradient 5% acetonitrile 3 min, to 50% in 2 min, to 85% in 15 min, held 3 min, 100 µL/min
Details: column: Zorbax Extend-C18 2.1 x 50 mm; eluents: water / acetonitrile, 0.1% formic acid
Param label: returns Yes when RP-LC retention time < 900 s, returns No otherwise, including exact equality.

Below are worked cases with known answers.
                                   compound  category
0  Cc1cc(NS(=O)(=O)c2c(C)noc2C)n(C2CCS(=O)(=O)C2)n1 (stereo not given)       Yes
1  CC(C)c1ccc(S(=O)(=O)N2CCC(C)(C(=O)NCc3ccc(F)cc3)CC2)cc1        No

We next turn to a different compound, shown below.
API: query returns whether the compound falls strictly under 900 s in RP-LC retention time. Query: Cc1cccc(NC(=O)N2CCCC2c2nc(-c3ccc(F)cc3F)no2)c1C (stereo not given)
No

###

# maps each entry to its RP-LC retention time
Test: gradient 5% acetonitrile 3 min, to 50% in 2 min, to 85% in 15 min, held 3 min, 100 µL/min
Details: column: Zorbax Extend-C18 2.1 x 50 mm; eluents: water / acetonitrile, 0.1% formic acid
Number in s, nothing else.

# example entries with known answers
In [3]: df
Out[3]:
                                   compound     reported_endpoint  value_measured
0  O=C(NCCc1csc(-c2cccs2)n1)C1CCN(S(=O)(=O)c2cccc(Cl)c2)CC1  RP-LC retention time             975
1  O=C(Nc1cccc(Br)c1)C1CCCN(c2ncc(-c3cccc(F)c3)cn2)C1 (configuration not stated)  RP-LC retention time            1260
2  CNC(=O)Cc1ccc(NS(=O)(=O)Cc2ccc(Cl)cc2)cc1  RP-LC retention time             703
3  N#Cc1ccsc1NC(=O)C1CCN(S(=O)(=O)c2ccc(Cl)s2)CC1  RP-LC retention time             906
4  C[C@]12CCC3=C4CCC(=O)C=C4CC[C@H]3[C@@H]1CC[C@@]2(O)CC#N  RP-LC retention time             796
5  CCCCOc1ccc(NC(=O)c2oc3ccc(F)cc3c2C)c2cccnc12  RP-LC retention time             850
6  CCCN(CC(=O)N(Cc1ccco1)CC1CCCO1)C(=O)Cc1ccc(F)cc1 (configuration not stated)  RP-LC retention time             872
7  CCN(Cc1ccccc1)C(=O)C1CCN(c2ncnc3c2oc2ccccc23)CC1  RP-LC retention time             871

Please turn your attention to the following entry.
Reported RP-LC retention time for O=C(CN1C(=O)C(C(=O)N2CCCCCC2)Sc2ccccc21)N1CCN(c2ncccn2)CC1 (configuration not stated) : what is it?
784

###

# maps each entry to its RP-LC retention time
Assay: gradient 5% acetonitrile 3 min, to 50% in 2 min, to 85% in 15 min, held 3 min, 100 µL/min
Details: column: Zorbax Extend-C18 2.1 x 50 mm; eluents: water / acetonitrile, 0.1% formic acid
Number in s, nothing else.

# example entries with known answers
>>> print(df.to_string())
                                   compound     reported_endpoint  value_measured
0               Nc1cccc(-c2nccnc2N2CCCC2)c1  RP-LC retention time             595
1  CCNC(=O)c1nnn(-c2cc(C(F)(F)F)ccc2Cl)c1-c1cccnc1  RP-LC retention time             796
2  Cc1ccc2c(c1)N(Cc1nc(-c3ccc4c(c3)OCO4)no1)C(=O)CO2  RP-LC retention time            1020

Reported RP-LC retention time for Nc1nc(-c2ccc(Cl)cc2)nn1C(=O)Cc1ccc(Cl)cc1 : what is it?
1170

# repeat for Cc1ccc(NC(=O)CSc2nnc(NC(=O)c3cc(C4CC4)on3)s2)cc1Cl
926

# repeat for O=C(Nc1ccc(-n2cnc(C(=O)N3CCC(Cc4ccccc4)CC3)c2)nc1)C1CC1
860

# repeat for CC1CCN(S(=O)(=O)c2ccc(-c3nnc(C(=O)NCCCN4CCN(C)CC4)o3)cc2)CC1
623

# repeat for COC(=O)c1c(C)[nH]c(C(=O)N2CCCC(C(=O)NCc3ccc4c(c3)OCO4)C2)c1C (stereo unspecified)
720

# repeat for Cc1ccccc1S(=O)(=O)N1CCC(c2nc(C(=O)N(C)C)c(C)o2)CC1
818

# repeat for COc1ccc(NS(=O)(=O)c2cc3c(s2)CCN(C(=O)C2CC2)C3)cc1OC
734

# repeat for COc1ccc(-c2nc(NC(=O)c3cccnc3)sc2C)cc1
800

###

Experiment: gradient 5% acetonitrile 3 min, to 50% in 2 min, to 85% in 15 min, held 3 min, 100 µL/min
Details: column: Zorbax Extend-C18 2.1 x 50 mm; eluents: water / acetonitrile, 0.1% formic acid
The label depends only on RP-LC retention time: satisfied if it is at least 700 s, not satisfied if it is smaller.

Below are worked cases with known answers.
In [3]: df
Out[3]:
                                   compound       category
0  Cc1ccc(-c2coc(-c3ccc(NC(=O)c4cccs4)cc3)n2)cc1      satisfied
1  Cc1nc(C2(C)CCN(S(=O)(=O)c3cc(F)ccc3C)CC2)no1      satisfied
2  CCS(=O)(=O)c1nc2ccc(NS(=O)(=O)c3cc(C)c(C)cc3C)cc2s1      satisfied
3  COc1ccc(-c2noc(Cc3nnc(-c4cccc(Cl)c4)o3)n2)cc1      satisfied
4  Cc1nc(-c2cn(C(C)C)c3ncccc23)sc1C(=O)NCc1ccccc1F      satisfied
5  COc1ccc(CCNS(=O)(=O)c2cccc(-c3nc(-c4ccc(C)cc4)no3)c2)cc1OC      satisfied
6         Cc1cc(C)n(-c2cc(Nc3ccccc3)ncn2)n1      satisfied
7  Cc1cccc(-c2nnc(SCc3cc(=O)n4ccsc4n3)o2)c1      satisfied
8  Cc1ccc(Cl)cc1NC(=O)C1CCN(S(=O)(=O)c2ccc3c(c2)NC(=O)CO3)CC1      satisfied
9  O=C(NC1CCCC1)c1nc(C(=O)N2CCN(c3ccccn3)CC2)cs1  not satisfied

State whether the measured RP-LC retention time reaches 700 s, counting equality as reaching it, for Cc1nnc2c(S(=O)(=O)N(Cc3ccccc3)c3cc(F)cc(F)c3)cccn12
satisfied

# repeat for O=C(c1ccc(F)c(Cl)c1)N1CCCC1c1nc(-c2ccccc2)no1 (stereo not given)
satisfied

# repeat for Cc1ccc(F)c(NC(=O)c2sc(-c3cn(C)c4ncccc34)nc2C)c1
satisfied

# repeat for N#Cc1cccc(NC(=O)C2CCCN(S(=O)(=O)c3c[nH]c(C(=O)N4CCCC4)c3)C2)c1 (stereo not given)
satisfied

# repeat for Cc1cccc(N2CCN(C(=O)c3cn(-c4cc(N5CCSCC5)ncn4)cn3)CC2)c1
satisfied

# repeat for C=CCn1c(=O)c2ccccc2n(Cc2nc(-c3ccc(Br)cc3)no2)c1=O
satisfied

# repeat for CCOCC(=O)N1CCC(N2CC(OCC3CC3)C23CCCCC3)CC1 (stereo not given)
not satisfied

###

Test: gradient 5% acetonitrile 3 min, to 50% in 2 min, to 85% in 15 min, held 3 min, 100 µL/min
Settings: column: Zorbax Extend-C18 2.1 x 50 mm; eluents: water / acetonitrile, 0.1% formic acid
# maps each entry to its RP-LC retention time
Number in s, nothing else.

Reported RP-LC retention time for O=S(=O)(c1ccc(Cl)cc1)N1CCC(c2nc(-c3ccccn3)no2)CC1 : what is it?
940

# repeat for CCC(C(=O)N1CCN(c2ccc(-c3ccc4c(c3)OCO4)nn2)CC1)c1ccccc1 (stereo not given)
723

# repeat for Cc1ccc(-c2cc(C(=O)NCCCN3CCN(C)CC3)c(C)[nH]2)cc1C
610

###

Experiment: gradient 5% acetonitrile 3 min, to 50% in 2 min, to 85% in 15 min, held 3 min, 100 µL/min
Details: column: Zorbax Extend-C18 2.1 x 50 mm; eluents: water / acetonitrile, 0.1% formic acid
reported endpoint: RP-LC retention time (s)
Number in s, nothing else.

>>> df
                                   compound     reported_endpoint  unit_of_measurement  value_measured
0  O=S(=O)(c1cc(F)ccc1F)N1CCCCC1c1noc(COCC2CC2)n1 (centres undefined)  RP-LC retention time                    s            1130
1  CC1(C)CCCC2(C)C3=C(CCC12)C(=O)OC3 (centres undefined)  RP-LC retention time                    s            1270
2  CSc1cccc(NC(=O)Cn2cnc3c(-c4ccncc4)nsc3c2=O)c1  RP-LC retention time                    s             668
3  CCOC(=O)c1c(C)c(CCC(=O)N2CCN(c3ccccn3)CC2)c(C)n1C  RP-LC retention time                    s             646
4  Cc1cccc(CCNC(=O)c2cc3n(n2)CC(C)(C(=O)NCc2ccccc2)N(C)C3=O)c1 (centres undefined)  RP-LC retention time                    s             814

Please turn your attention to the following entry.
Reported RP-LC retention time for Cc1ccc(C)c(NC(=O)N2CCC(c3nc(C(=O)N(C)C)c(C)o3)CC2)c1 : what is it?
711
